These measurements were taken from patent US20260241046A1.

Assay: Extended single-dose toxicity study (GLP)
Assay type: in vivo
Settings: both sexes, mouse, in vivo, iv, 5 mg/kg; single i.v. dose, CD-1 mice; read-out: no adverse effect level (NOAEL)
endpoint-label: NOAEL at 2 weeks

Value of measured NOAEL at 2 weeks for the entry O=C(O)CC[C@H](NC(=O)N[C@@H](CCCCNC(=O)CCCCCCC(=O)NCCCC[C@@H](NC(=O)[C@@H](Cc1ccccc1)NC(=O)[C@@H](Cc1ccc(O)c(I)c1)NC(=O)CC[C@H](C(=O)O)N1CCN(CC(=O)O)CCN(CC(=O)O)CC1)C(=O)O)C(=O)O)C(=O)O [NODAGA-PSMA I&T, NODAGA-(I-y) fk (Sub-KuE)] : 5 mg/kg
